System: Saccharomyces cerevisiae
Assay: protein stability index of tFT-peptide fusion (C-terminal peptide) (PSI (0-1 scale)); higher = more stable (slower turnover)
Settings: genetic background: wild type; temperature: 37 C
Each entry gets -1 if its protein stability index stays under 0.5, and 1 if its protein stability index is 0.5 or above.

Consider the worked cases shown below.
* FSLSLFPYPFSL | 1
* IFLGFGPLFGRL | 1
* LFFFVFFVLFSV | -1

hey, is protein stability index for this one >= 0.5? "MRVYLVLWADSC"
-1

Say whether "PPPLCSTCIRCC" shows protein stability index of 0.5 or more.
-1

I'd appreciate it if you could say whether "LLYYQVFKTRRL" has protein stability index at least equal to 0.5.
1

---

System: Saccharomyces cerevisiae
Experiment: protein stability index of tFT-peptide fusion in deletion strain of DAS1 (PSI (0-1 scale)); higher = more stable (slower turnover)
Record Y whenever protein stability index is at 0.6 or higher; record N when lower.

// below: answered sequences
- FDMRWTFRYWVN: N
- PSLAASFWRVVD: Y
- CTSCGYKFSTNN: Y
- KKHKKVQKQKIN: Y

Is reported protein stability index greater than or equal to 0.6 here: "LKILRQKMNHHN"
Y

Identify whether the reported protein stability index of the following sequence is 0.6 or greater: "FSMRWTFRYWVNG"
N

Confirm if protein stability index reported for the sequence "PSLAASFWRVVGY" is 0.6 or above.
Y

// inclusive: protein stability index at least 0.6? input: "RLIQGLPVQFLN"
Y

Check this sequence for protein stability index at or above 0.6: "VRGAVGLWRLVG"
Y

Does the sequence "PIKRNHLIKLLN" have recorded protein stability index that is 0.6 or more?
Y

Does the reported protein stability index for "KKHKKGQKQKHN" fall at or above the 0.6 mark?
Y

---

Tested on: Saccharomyces cerevisiae
Experiment: protein stability index of tFT-peptide fusion (C-terminal peptide) (PSI (0-1 scale)); higher = more stable (slower turnover)
Conditions: genetic background: wild type; temperature: 37 C
Classify by protein stability index. Ranges: lo: < 0.4; mid: ≥ 0.4 and < 0.5; hi: ≥ 0.5

- FLFSSLFCFLFL: hi
- VFSFLYHVVPVL: mid
- PISNMSIILLFL: hi
- ASWRYMFPVTLG: mid
- CCVFFLLCLSLF: mid
- GGGHGSSCSVCD: hi
- LFSFFVFFFLLD: mid
- DPKQVRIQSSWL: hi

Which class is correct for the following sequence? "RGGVLYVSIRCK"
lo

# bin lookup: classify "IACVLSIFLNAA" by its protein stability index
mid

In plain terms, what class is "LPTVSRPGALIC" ?
lo

---

Test system: Saccharomyces cerevisiae
Experiment: protein stability index of tFT-peptide fusion in deletion strain of DAS1 (PSI (0-1 scale)); higher = more stable (slower turnover)
Consider the following sequences; for each one, report its protein stability index.
One number for each entry.

Example cases with answers are listed next.
• RLIQPLPVQFLA = 0.589
• KKHKKGAKQKIN = 0.608

Read the next record carefully.
What value of protein stability index has been recorded for this entry: "FSMPWTFRYWVN"
0.598

---

Give protein stability index for every item shown.
System: Saccharomyces cerevisiae
Experiment: protein stability index of tFT-peptide fusion (C-terminal peptide) (PSI (0-1 scale)); higher = more stable (slower turnover)
Conditions: genetic background: wild type; temperature: 37 C
One number for each entry.

Examples with their reported protein stability index follow.
- IDSEVHLWKRSA: 0.405
- FACLTPFCLCLT: 0.511

Moving on to another sequence below.
# query: protein stability index | item "ILLICLQFFNLF" | system: Saccharomyces cerevisiae
0.505
